inhibition for assorted compounds
- Tgt: UniProtKB Q96FI4
- Sequence (Q96FI4 whole entry): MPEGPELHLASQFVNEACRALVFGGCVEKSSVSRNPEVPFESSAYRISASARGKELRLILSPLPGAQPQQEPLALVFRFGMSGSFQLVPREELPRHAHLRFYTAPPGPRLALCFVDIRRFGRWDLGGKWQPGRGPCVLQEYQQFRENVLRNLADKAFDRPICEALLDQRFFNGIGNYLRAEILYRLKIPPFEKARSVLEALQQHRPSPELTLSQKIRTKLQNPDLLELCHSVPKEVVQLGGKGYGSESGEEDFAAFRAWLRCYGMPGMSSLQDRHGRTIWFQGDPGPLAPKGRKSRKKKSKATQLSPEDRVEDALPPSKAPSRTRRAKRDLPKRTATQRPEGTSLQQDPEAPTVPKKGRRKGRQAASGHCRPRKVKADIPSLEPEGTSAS
- Run Conditions: Compound Concentration 10.0 uM, Hit No;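 also: fluorescence at 594 nm from quenched duplex DNA oligonucleotides released by NEIL1 cleavage and strand separation, reported as reduction of this enzyme activity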
- Description: Inhibition of NEIL1 by quantifying inhibition of NEIL1-mediated cleavage and dissociation of quenched duplex DNA oligonucleotides, measured as fluorescence at 594 nm.
Quantity Name: inhibition (%)

Compound	Scale Unit	Recorded Result
Cc1onc(-c2ccc(F)cc2)c1COc1ccc(C(=O)N2CCS(=O)(=O)CC2)cn1	%	-9.77
CCCCC(=O)N(Cc1ccc(-c2ccccc2-c2nnn[nH]2)cc1)[C@H](C(=O)O)C(C)C	%	0.537
COc1cc(OC)cc(C(=O)NNC(=O)Nc2cccc3ccccc23)c1	%	-1.69
Clc1ccc(-c2nc3sccn3c2/C=N/OCc2ccc(Cl)c(Cl)c2)cc1	%	1.22
Cc1ccc(-c2ccc(F)cc2COc2ccc(CCC(=O)O)cc2)cc1	%	4.39
COCCCS(=O)(=O)c1cc(C)c(-c2ccc(F)c3c2CC[C@H]3Oc2ccc3c(c2)OC[C@H]3CC(=O)O)c(C)c1	%	-3.62
CCOc1ccccc1C(=O)NCC1(N2CCN(CC)CC2)CCCCC1	%	-3.55
CCCN(CCC)CCc1cccc2c1CC(=O)N2	%	7.51
C[C@@](Cc1c[nH]c2ccccc12)(NC(=O)Nc1ccc([N+](=O)[O-])cc1)C(=O)NCC1(c2ccccn2)CCCCC1	%	7.51
NS(=O)(=O)c1cc(NC(=O)Cc2ccccc2)ccc1Oc1cccc(Cl)c1	%	-8.47
CN1C[C@@H](NS(=O)(=O)N(C)C)C[C@@H]2c3cccc4c3c(cn4C)C[C@H]21	%	13.1
CC[C@H]1[C@@H](O)[C@@H]2[C@H](CC[C@]3(C)[C@@H]([C@H](C)CCC(=O)O)CC[C@@H]23)[C@@]2(C)CC[C@@H](O)C[C@@H]12	%	1.53
C[C@@H](OC[C@@]1(c2ccccc2)CC[C@]2(CCC(=O)N2)CN1)c1cc(C(F)(F)F)cc(C(F)(F)F)c1	%	-1.98
CC[C@@H]1CN2C(=O)N(C)c3nc(-c4ccccc4)[nH]c3C2=N1	%	0.982
Cc1ccc(S(=O)(=O)Nc2ccc(-n3nc(C(F)(F)F)cc3C(F)(F)F)cc2)cc1	%	3.57
C[C@@H](O[C@H]1OCCN(Cc2n[nH]c(=O)[nH]2)[C@H]1c1ccc(F)cc1)c1cc(C(F)(F)F)cc(C(F)(F)F)c1	%	5.88
N#CC1(c2ccccn2)CCN(Cc2cc(C(=O)O)c(=O)n3ccccc23)CC1	%	-0.139
Cc1c(-c2cc(-c3ccccc3Cl)no2)cnn1C1CCNCC1	%	5.79
COc1ccccc1C(=O)Nc1cccc(NC(=O)c2cccc(C)c2)c1	%	-5.33
CN(C(=O)c1ccccc1)c1cc(N(C)c2ccc3c(c2)CCc2ccc(C(=O)NCCN4CCOCC4)cc2C3=O)ccc1F	%	-3.21
CC(F)(F)CN1CCOc2c(nn(-c3ccccc3Cl)c2-c2ccc(Cl)cc2)C1=O	%	-3.02
COc1cccc(OC)c1-c1cc(C(=O)NC2(C(=O)O)C3CC4CC(C3)CC2C4)nn1-c1ccc(C(=O)N(C)CCCN(C)C)cc1C(C)C (configuration not stated)	%	2.02
N#Cc1cccc(C(=O)Nc2cc(-c3ccccc3)nn2-c2ccccc2)c1	%	-1.98
N=C(N)NCCSC(=N)N	%	-7.55
Cc1cc(SCc2sc(-c3ccc(C(F)(F)F)cc3)nc2C)ccc1OCC(=O)O	%	-2.11
Cn1c(=O)n(CCCO)c(=O)c2c1nc(Oc1cccc(OC(F)(F)F)c1)n2Cc1ccc(Cl)cc1	%	-2.66
O=C(NC[C@@H]1[C@H]2CN(C(=O)OCc3cc(C(F)(F)F)cc(C(F)(F)F)c3)C[C@@H]12)c1ccc2[nH]nnc2c1	%	-8.32
CC(C)COc1ccc(CNC(=O)N(Cc2ccc(F)cc2)C2CCN(C)CC2)cc1	%	2.32
COc1ccc2[nH]cc(CCNC(C)=O)c2c1	%	1.13
CNc1nc(Nc2ccccc2)nc(OC(C(F)(F)F)C(F)(F)F)n1	%	2.83
CC[C@H]1CN2CCc3cc(OC)c(OC)cc3[C@@H]2C[C@@H]1C[C@H]1NCCc2cc(OC)c(OC)cc21	%	-0.5
CCc1ccccc1C(=O)Nc1n[nH]c2c(C)c(F)c(C3C(C#N)=C(C)N(C)C(C)=C3C#N)cc12	%	-6.65
O=[N+]([O-])c1ccc(CN2CCOCCOCCN(Cc3ccc([N+](=O)[O-])cc3)CCOCC2)cc1	%	-2.36
Cc1cccc(CCN2CCC(C(=O)c3ccc(NS(C)(=O)=O)cc3)CC2)n1	%	0.158
CCCCN(CCCC)C(=O)CN1C[C@@H](c2cc(OC)c3c(c2)OCO3)[C@H](C(=O)O)[C@H]1CC(C)(C)CCC	%	-6.35
NS(=O)(=O)c1cc(NC(=O)C2(c3ccccc3Cl)CC2)ccc1Oc1cccc(Cl)c1	%	-2.56
O=C1C[C@@H]2OCC=C3CN4CC[C@]56c7ccccc7N1[C@H]5[C@H]2[C@H]3C[C@H]46	%	0.602
